Each record here notes measured self-cleavage.
B1: Osa-1-4 twister ribozyme (parent)
chain: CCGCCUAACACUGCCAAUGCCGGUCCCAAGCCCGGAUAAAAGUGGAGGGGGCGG

variants of: B1; test: self-cleavage, relative activity (ratio to wild type); higher = more cleavage; co-transcriptional
Just the number, please.

mutation-list: A46C G50C
self-cleavage: 0.08

mutation-list: C52U G47C
self-cleavage: 0.12

mutation-list: G35C U12A
self-cleavage: 0.08

**Q:** // returns reported self-cleavage for input G45A G47U
**A:** 0.06

**Q:** Also, G22C G51A please.
**A:** 0.04
